Listed compounds paired with reported Change
System: Rattus norvegicus
procedure-text: Percent change in systolic blood pressure (mmHg)in anesthetized rats by i.v. administration
Format: functional, Artery
// units = %; emit number, no label

compound	Change / %
COc1ccc(/C=C/C(=O)NCCCCN=C(N)N)cc1OC	-8
COc1ccc(/C=C/C(=O)NCCCC/N=C(\N)NCC=C(C)C)cc1OC	-26
CC(C)=CCNC(=N)NCCCCN	-11

Given `COC(=O)[C@H]1[C@H]2C[C@@H]3c4[nH]c5cc(OC)ccc5c4CCN3C[C@H]2C[C@@H](OC(=O)c2cc(OC)c(OC)c(OC)c2)[C@@H]1OC` , state its recorded Change. -31

Endpoint output: Change of C[N+](C)(C)CCCCCC[N+](C)(C)C.[Cl-].[Cl-] [HEXAMETHONIUM CHLORIDE] . Value? -42

State the recorded Change for this entry: `Clc1cccc(Cl)c1NC1=NCCN1` -16

Name the reported Change value associated with the compound `NCCCCN=C(N)N` -8

May I ask what Change has been recorded for `COc1ccc(Cc2nccc3cc(OC)c(OC)cc23)cc1OC` ? -18

Sample `CC(C)=CCN=C(N)N` — what was its Change? -27

For the compound shown here, `N=C(N)NCCN1CCCCCCC1` , give the reported Change. -26

Name the recorded Change for `NCCc1c[nH]cn1` . -25
